The measurements presented in this section are drawn from patent US20260365731.

Recorded pKd values for a group of binders are listed next.
molecular target: human PD-1 (human, UniProt Q15116); test: BLI
Sequence (Q15116 25-167): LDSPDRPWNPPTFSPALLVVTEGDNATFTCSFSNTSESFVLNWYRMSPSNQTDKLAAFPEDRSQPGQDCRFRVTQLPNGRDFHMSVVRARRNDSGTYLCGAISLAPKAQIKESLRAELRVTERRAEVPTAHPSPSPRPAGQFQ
pKd: −log10 of the molar value.
observed-property: pKd

[[record]]
binder = "Antibody 23 PD-1 arm (antibody, V domains shown) VH: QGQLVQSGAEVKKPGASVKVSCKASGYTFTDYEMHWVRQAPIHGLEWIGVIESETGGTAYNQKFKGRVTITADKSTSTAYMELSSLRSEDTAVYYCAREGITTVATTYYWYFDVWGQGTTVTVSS VL: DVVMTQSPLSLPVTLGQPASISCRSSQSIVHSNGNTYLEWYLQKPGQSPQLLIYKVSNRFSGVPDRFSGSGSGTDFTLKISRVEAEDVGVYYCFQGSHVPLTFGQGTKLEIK"
observed_property = "pKd"
reported_result = 8.76

[[record]]
binder = "Antibody 28 PD-1 arm (antibody, V domains shown) VH: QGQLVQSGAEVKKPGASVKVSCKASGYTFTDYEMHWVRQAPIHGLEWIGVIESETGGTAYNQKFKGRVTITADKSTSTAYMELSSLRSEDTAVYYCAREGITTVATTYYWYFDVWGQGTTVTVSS VL: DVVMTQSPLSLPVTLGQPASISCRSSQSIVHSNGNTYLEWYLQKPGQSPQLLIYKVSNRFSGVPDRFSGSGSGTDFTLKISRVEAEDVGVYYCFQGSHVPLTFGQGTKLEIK"
observed_property = "pKd"
reported_result = 8.78

